Source of measurements: ChEMBL document CHEMBL1201862

Tested on: HOP-92
protocol: NCI tumour cell line growth inhibition, 48 h
Active and inactive are the calls of the source. Cut-off read from the data, not from the text of the source: active = GI50 up to about 1.1 µM and inactive = higher.
Can you answer with just one of these options? 1 for active, 0 for inactive

**Query** Any idea what this test logged for COC(=O)C(CNC(=O)/C=C/c1ccc(OC(C)=O)c(OC(C)=O)c1)NC(=O)/C=C/c1ccc(OC(C)=O)c(OC(C)=O)c1 (configuration not stated) ?
**Result** 0

**Query** Any idea what this test logged for CC(C)(C)CN1[C@@H]2CCCC[C@H]2N(CC(C)(C)C)P1(=O)C(O)/C=C/c1ccccc1 (some centres not stated) ?
**Result** 0

**Query** Any idea what this test logged for CCC/N=C1\S/C(=C/c2ccc(OC)c(OC)c2)C(=O)N1c1ccccc1 ?
**Result** 0

**Query** Any idea what this test logged for Cc1noc(C)c1-n1nc2ccc3nonc3c2n1 ?
**Result** 0

**Query** Any idea what this test logged for O=C1NC(=S)NC(=O)C1=Cc1ccc([N+](=O)[O-])o1 ?
**Result** 0

**Query** Any idea what this test logged for O=C(O)CC(NC(=O)/C(=C/c1ccccc1)NC(=O)c1ccccc1)C(=O)O (configuration not stated) ?
**Result** 0

**Query** Any idea what this test logged for c1ccc2c(c1)SP1Sc3ccccc3P21 (configuration not stated) ?
**Result** 0

**Query** Any idea what this test logged for Cc1ccc(S(=O)(=O)N(/N=C(\N)Oc2ccc(Cl)cc2)C(=N)Oc2ccc(Cl)cc2)cc1 ?
**Result** 0

**Query** Any idea what this test logged for Nc1ccc2c(c1)CN1C(=O)c3ccccc3C1=N2 ?
**Result** 0

**Query** Any idea what this test logged for COc1cc(C2c3cc4c(cc3[C@@H](Nc3ccc5c(c3)OCO5)C3COC(=O)[C@H]23)OCO4)cc(OC)c1O (some centres not stated) ?
**Result** 1

**Query** Any idea what this test logged for COC(=O)C1=CSC2(S1)C(C(=O)OC)=CSc1c2ssc1=O (configuration not stated) ?
**Result** 0

**Query** Any idea what this test logged for CC1(C)CN=C(Nc2ccc(Cl)cc2)S1 ?
**Result** 0
